- EXPERIMENTAL TARGET: HLA-B*5401 (Human)
- ASSAY COMMENT: competition with 125I-labelled probe peptide, purified HLA, gel filtration
EXPERIMENTAL READOUT: IC50

Quickly give me recorded IC50 for SPGALVVGVV (modifications not checked) [peptide 15.0239]
> 30 µM
